target: T1, biotinylated hBLyS-ECD (human, UniProt Q9Y275 134-285, biotinylated with Biotin-X-X-NHS (molar ratio 7:1); sites not stated); assay: BAFF R-coated ELISA, biotinylated hBLyS-ECD bound in presence of antibody 0 nM
T1 construct: also called biotinylated immunogen; biotinylated hBLvS-ECD
T1 sequence (Q9Y275 134-285): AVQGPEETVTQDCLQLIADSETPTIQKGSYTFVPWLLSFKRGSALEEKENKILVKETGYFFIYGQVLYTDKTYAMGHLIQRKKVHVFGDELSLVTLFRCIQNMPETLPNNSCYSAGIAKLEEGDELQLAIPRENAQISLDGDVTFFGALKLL
observedProperty: OD450 nm (OD450 nm)
Number only, in OD450 nm; omit the unit.

Query block: // fetch OD450 nm given entry c8E7D9C7F5 (antibody, V domains shown, also called chimeric antibody c8E7D9C7F5) VH: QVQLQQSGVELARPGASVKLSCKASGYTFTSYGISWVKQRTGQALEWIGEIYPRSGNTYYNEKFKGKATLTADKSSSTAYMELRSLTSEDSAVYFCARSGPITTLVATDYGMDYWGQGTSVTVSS VL: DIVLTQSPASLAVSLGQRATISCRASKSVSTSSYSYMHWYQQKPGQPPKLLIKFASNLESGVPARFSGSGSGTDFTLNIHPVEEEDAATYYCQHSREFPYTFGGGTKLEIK
Result block: 1.95
